- assayed.target: Protein cereblon (Homo sapiens, UniProt Q96SW2)
- Sequence (Q96SW2 whole entry): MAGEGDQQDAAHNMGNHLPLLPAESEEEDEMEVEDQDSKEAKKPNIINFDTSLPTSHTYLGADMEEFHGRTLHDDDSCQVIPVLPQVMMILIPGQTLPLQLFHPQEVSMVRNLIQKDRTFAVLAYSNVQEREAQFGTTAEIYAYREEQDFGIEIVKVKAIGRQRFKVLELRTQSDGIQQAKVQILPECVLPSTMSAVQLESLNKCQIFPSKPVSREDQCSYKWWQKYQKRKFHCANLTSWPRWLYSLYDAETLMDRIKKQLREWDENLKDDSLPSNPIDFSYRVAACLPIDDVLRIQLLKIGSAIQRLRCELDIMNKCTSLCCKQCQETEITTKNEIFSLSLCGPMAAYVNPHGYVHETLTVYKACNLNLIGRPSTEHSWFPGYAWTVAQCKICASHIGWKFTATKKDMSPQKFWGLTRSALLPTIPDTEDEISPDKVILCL
- assay.summary: Binding affinity to CRBN (unknown origin) by HTRF assay
attribute.measured: IC50 (nM)
One number for each entry, in nM.

IC50 for CC(C)(O)c1cc2c(cnn2CCCCCCCCCNc2cccc3c2C(=O)N(C2CCC(=O)NC2=O)C3=O)cc1NC(=O)c1cccc(C(F)(F)F)n1 (centres undefined) is 880

// CN(CCCO[C@H]1C[C@@H](Nc2cccc3c2C(=O)N(C2CCC(=O)NC2=O)C3=O)C1)C[C@H]1CC[C@H](n2cc3cc(NC(=O)c4cccc(C(F)(F)F)n4)c(C(C)(C)O)cc3n2)CC1 (some centres undefined) : IC50 value = 75

// recorded IC50 for CN(CCCNc1cccc2c1C(=O)N(C1CCC(=O)NC1=O)C2=O)C[C@H]1CC[C@H](n2cc3cc(NC(=O)c4cccc(C(F)(F)F)n4)c(C(C)(C)O)cc3n2)CC1 (some centres undefined) : 62

From here, focus on the item given below.
get_value(item= CN(CCCCc1cccc2c1C(=O)N(C1CCC(=O)NC1=O)C2=O)C[C@H]1CC[C@H](n2cc3cc(NC(=O)c4cccc(C(F)(F)F)n4)c(C(C)(C)O)cc3n2)CC1 (some centres undefined) , readout=IC50) returns 91

----------
I'd appreciate it if you could supply Papp A→B at 2 h, 1 µM values for the items below.
- assay.summary: Passive permeability of the compound in wild type MDCK cells across apical to basolateral side at 1 uM measured for 120 mins by LC-MS/MS analysis
- Format: ADME, cell-based, Canis lupus familiaris
- test.settings: dog, read-out: permeability
Numbers only, in ×10⁻⁶ cm/s.

# example entries with known answers
Measured Papp A→B at 2 h, 1 µM of COc1cc2nc([C@H]3CC[C@H](CN4CC5(CC(CCNc6cccc7c6C(=O)N(C6CCC(=O)NC6=O)C7=O)C5)C4)CC3)cn2cc1NC(=O)c1cccc(C(F)(F)F)n1 (stereo not given in full) : 0.64

Per the records, this molecule ( O=C1CCC(N2C(=O)c3cccc(NCC4CC5(CCN(C[C@H]6CC[C@H](n7cc8cc(NC(=O)c9cccc(C(F)(F)F)n9)c(C(F)F)cc8n7)CC6)CC5)C4)c3C2=O)C(=O)N1 (stereo not given in full) ) has Papp A→B at 2 h, 1 µM equal to 2.7

Field Papp A→B at 2 h, 1 µM (entry CN(C[C@H]1CC[C@H](n2cc3cc(NC(=O)c4cccc(C(F)(F)F)n4)c(C(C)(C)O)cc3n2)CC1)[C@H]1CC[C@@]2(CC1)C[C@H](Nc1cccc3c1C(=O)N(C1CCC(=O)NC1=O)C3=O)C2 (stereo not given in full) ) reads 2.9

Give Papp A→B at 2 h, 1 µM for each listed item.
1. COc1cc2nc([C@H]3CC[C@H](CN4CC5(CC(CCNc6cccc7c6C(=O)N(C6CCC(=O)NC6=O)C7=O)C5)C4)CC3)n(C)c2cc1NC(=O)c1cccc(C(F)(F)F)n1 (stereo not given in full)
2. CN(CCCO[C@H]1C[C@H](Nc2cccc3c2C(=O)N(C2CCC(=O)NC2=O)C3=O)C1)C[C@H]1CC[C@H](n2cc3cc(NC(=O)c4cccc(C(F)(F)F)n4)c(C(F)F)cc3n2)CC1 (stereo not given in full)

0.4
0.76

----------
- assayed.target: Protein cereblon/Interleukin-1 receptor-associated kinase 4 (Homo sapiens, UniProt Q9NWZ3+Q96SW2)
- Sequence (Q9NWZ3 whole entry, one chain of several): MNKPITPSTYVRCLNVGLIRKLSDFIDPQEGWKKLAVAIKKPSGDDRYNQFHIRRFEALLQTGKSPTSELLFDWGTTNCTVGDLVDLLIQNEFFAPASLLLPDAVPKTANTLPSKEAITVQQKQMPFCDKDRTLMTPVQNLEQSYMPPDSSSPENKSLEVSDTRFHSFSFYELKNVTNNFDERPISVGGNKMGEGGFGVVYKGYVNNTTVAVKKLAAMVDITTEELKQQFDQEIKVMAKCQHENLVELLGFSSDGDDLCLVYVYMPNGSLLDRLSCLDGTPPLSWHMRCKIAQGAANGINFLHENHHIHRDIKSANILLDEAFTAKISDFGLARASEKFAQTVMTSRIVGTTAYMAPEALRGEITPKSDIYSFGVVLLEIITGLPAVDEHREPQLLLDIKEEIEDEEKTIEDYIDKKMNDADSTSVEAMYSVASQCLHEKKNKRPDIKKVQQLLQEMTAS
- assay.summary: PROTAC activity at CRBN/IRAK4 in human OCI-Ly10 cells assessed as induction of IRAK4 degradation measured after 24 hrs by MSD assay
- Type: cell-based
Assign log10 DC50 to each entry below.
Units before log transform: µM; reported quantity: DC50; transform: log10.

Looking up COc1cc2nc([C@H]3CC[C@H](CN4CC5(CC(CCNc6cccc7c6C(=O)N(C6CCC(=O)NC6=O)C7=O)C5)C4)CC3)sc2cc1NC(=O)c1cccc(C(F)(F)F)n1 (stereo partly specified) , I found its log10 DC50 recorded as -1.46

Lab note: measured log10 DC50 of COc1cc2nc([C@H]3CC[C@H](CN4CC5(CC(CCNc6cccc7c6C(=O)N(C6CCC(=O)NC6=O)C7=O)C5)C4)CC3)n(C)c2cc1NC(=O)c1cccc(C(F)(F)F)n1 (stereo partly specified) was -1.48

Your task in this section: give log10 DC50 for each listed record.
1. CN(C[C@H]1CC[C@H](n2cc3cc(NC(=O)c4cccc(C(F)(F)F)n4)c(C(C)(C)O)cc3n2)CC1)[C@H]1CC[C@@]2(CC1)C[C@H](Nc1cccc3c1C(=O)N(C1CCC(=O)NC1=O)C3=O)C2 (stereo partly specified)
2. CN(CCCO[C@H]1C[C@@H](Nc2cccc3c2C(=O)N(C2CCC(=O)NC2=O)C3=O)C1)C[C@H]1CC[C@H](n2cc3cc(NC(=O)c4cccc(C(F)(F)F)n4)c(C(C)(C)O)cc3n2)CC1 (stereo partly specified)
3. CN(CCCNc1cccc2c1C(=O)N(C1CCC(=O)NC1=O)C2=O)C[C@H]1CC[C@H](n2cc3cc(NC(=O)c4cccc(C(F)(F)F)n4)c(C(C)(C)O)cc3n2)CC1 (stereo partly specified)
4. CN(CCCO[C@H]1C[C@H](Nc2cccc3c2C(=O)N(C2CCC(=O)NC2=O)C3=O)C1)C[C@H]1CC[C@H](n2cc3cc(NC(=O)c4cccc(C(F)(F)F)n4)c(C(C)(C)O)cc3n2)CC1 (stereo partly specified)

1. -1.89
2. -1.37
3. -1.44
4. -2.40
